Ref: patent US12522594B2

Target: AHR (Homo sapiens, UniProt P35869)
Sequence (P35869 11-848): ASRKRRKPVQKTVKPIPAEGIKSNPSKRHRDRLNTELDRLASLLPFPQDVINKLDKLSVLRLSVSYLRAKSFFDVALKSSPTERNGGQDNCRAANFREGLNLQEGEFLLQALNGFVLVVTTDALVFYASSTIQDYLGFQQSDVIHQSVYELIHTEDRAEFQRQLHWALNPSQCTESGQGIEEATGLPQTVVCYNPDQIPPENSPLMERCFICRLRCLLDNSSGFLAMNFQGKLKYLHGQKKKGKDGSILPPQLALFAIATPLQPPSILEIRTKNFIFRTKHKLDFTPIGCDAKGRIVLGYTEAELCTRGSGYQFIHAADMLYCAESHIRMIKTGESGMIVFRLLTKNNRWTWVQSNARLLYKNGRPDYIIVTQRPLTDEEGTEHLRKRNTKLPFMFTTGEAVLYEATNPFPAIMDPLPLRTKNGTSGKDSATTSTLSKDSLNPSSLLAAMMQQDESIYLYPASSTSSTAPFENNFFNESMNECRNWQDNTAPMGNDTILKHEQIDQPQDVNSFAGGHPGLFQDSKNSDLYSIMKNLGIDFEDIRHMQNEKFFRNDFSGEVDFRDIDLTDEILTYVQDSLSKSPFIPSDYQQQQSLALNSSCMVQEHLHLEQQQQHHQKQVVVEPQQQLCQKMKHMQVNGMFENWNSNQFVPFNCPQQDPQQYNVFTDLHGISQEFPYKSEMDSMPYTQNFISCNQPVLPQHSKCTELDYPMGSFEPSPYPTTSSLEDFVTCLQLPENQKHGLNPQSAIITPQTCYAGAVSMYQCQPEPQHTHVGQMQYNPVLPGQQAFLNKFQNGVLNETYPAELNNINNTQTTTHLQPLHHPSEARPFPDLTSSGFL
Experiment: In vitro assay 1: antagonism in human cell line (transactivation assay, U87 cells prestimulated with kynurenic acid, DRE firefly luciferase reporter)
Assay type: cell-based
Set-up: host or cells: U87 glioblastoma cells, stably transfected with DRE firefly luciferase and renilla reporter constructs
Details: 150 uM kynurenic acid, 20 hours, read-out: Assay 1: AHR-luc Hum Antagonism IC50
pIC50: −log10 of the molar value.
Kind request: treat 8 as inclusive, so pIC50 at 8 or higher is T, anything lower is F.

A selection of reference data follows.
>>> df
                                   molecule  cat
0  O=C(N[C@H]1CCCC[C@H]1O)c1cc(-c2ccc(Cl)cc2)nn(-c2cncc(F)c2)c1=O [Example 124]    T
1  O=C(N[C@@H]1COC[C@@H]1O)c1cc(-c2ccc(C(F)(F)F)cc2)nn(-c2cccnc2)c1=O (single isomer, unassigned) [Example 252]    F

*Q* Hi team, for COC[C@@H](CO)NC(=O)c1cc(-c2ccc(Cl)cc2)nn(-c2cccnc2)c1=O [Example 75] , is the recorded pIC50 at or above 8?
*A* F

*Q* Hi team, for C[C@]1(O)CCC[C@H]1NC(=O)c1cc(-c2ccc(OC(F)(F)F)cc2)nn(-c2cccnc2)c1=O (single isomer, unassigned) [Example 329] , is the recorded pIC50 at or above 8?
*A* F

*Q* Hi team, for C[C@@H](CO)NC(=O)c1cc(-c2ccc(C(F)(F)F)cc2)nn(-c2cccnc2)c1=O [Example 119] , is the recorded pIC50 at or above 8?
*A* T

*Q* Hi team, for O=C(NC(CO)C(F)(F)F)c1cc(-c2ccc(C(F)(F)F)cc2)nn(-c2cccnc2)c1=O (racemic) [Example 110] , is the recorded pIC50 at or above 8?
*A* T
